assay-readout: melting point

INSERT INTO results (structure_smiles_string, assay_readout, reported_value) VALUES
  ('CSc1cnc2c(c1)c(C#N)c(-c1ccc(S(=O)(=O)N[C@@H](C)C(F)(F)F)cn1)n2C1CCCC1', 'melting point', '168 to 172 °C'),
  ('N#Cc1c(-c2ccc(S(=O)(=O)NC(CF)CF)cn2)n(C2CCCC2)c2ncc(Cl)cc12', 'melting point', '208 to 209 °C'),
  ('CC(C)NS(=O)(=O)c1cnc(-c2c(C#N)c3cnc(Cl)cc3n2C2CCC2)nc1', 'melting point', '238 to 239 °C'),
  ('NC(=O)c1c(-c2ccc(S(=O)(=O)NC3(C(F)(F)F)CC3)cn2)n(C2CCCC2)c2ncc(C(F)(F)F)cc12', 'melting point', '262 to 264 °C');

Please look at the items below and tell me melting point for each one, in order.
1. Cc1cnc2c(c1)c(C#N)c(-c1ccc(S(=O)(=O)N[C@@H](C)C(F)(F)F)cn1)n2-c1cscn1
2. Cc1cnc2c(c1)c(C#N)c(-c1ccc(NC(=O)C(C)C)cc1)n2C1CCC1
3. Cc1cnc2c(c1)c(C#N)c(-c1ccc(S(=O)(=O)N[C@@H](C)C(F)(F)F)cn1)n2C
4. CN(C)c1cnc2c(c1)c(C#N)c(-c1ccc(NS(=O)(=O)C3(C)CC3)cc1)n2C1CCC1

186 to 188 °C
134 to 140 °C
182 to 186 °C
209 to 213 °C
